- System: ACHN
- assay.method.text: NCI tumour cell line growth inhibition, 48 h
Calls of active or inactive are those of the source. Rule as the data show it: active = GI50 up to about 1.1 µM and inactive = higher.
parameter: GI50

For C[C@H](C(O)CC(=O)C(C)(C)O)[C@H]1CC[C@@]2(C)[C@@H]3CC[C@H]4C(C)(C)[C@@H](OC5OC(COC6OC(CO)C(O)C(O)C6O)C(O)C(O)C5O)CC[C@]4(C)C3=CC[C@]12C (some centres undefined) , what is its reported GI50?
> 100 µM (inactive)

GI50 lookup needed for COC(=O)C(CC(=O)c1ccccc1)c1ccccc1NC(C)=O (centres undefined) , thanks.
> 100 µM (inactive)

For Cc1cc(N(CCC#N)CCC#N)ccc1C(/N=N/c1ccc([N+](=O)[O-])cc1)=N\NC(=O)c1cc(Cl)ccc1C(=O)c1ccccc1 , what is its reported GI50?
12.2 µM (inactive)

Which GI50 is reported for this compound? O=C(CNC(=O)OCc1ccccc1)NCCCCC(NC(=O)OCc1ccccc1)C(=O)O (centres undefined)
> 100 µM (inactive)

---

Provide the reported GI50 of each item.
- Tested on: SF-539
- assay.method.text: NCI tumour cell line growth inhibition, 48 h
Active and inactive are the calls of the source. Cut-off read from the data, not from the text of the source: active = GI50 up to about 1.1 µM and inactive = higher. Residues, ends and D or L forms follow the SMILES beside them. *: point of attachment. Cbz = O=C(OCc1ccccc1)*

Enter reported GI50 observed with SF-539 for CCCC(=O)c1c(NOC2OCC(OC(C)=O)C(OC(C)=O)C2OC(C)=O)nc(OC)n(C)c1=O (stereo not drawn)
> 100 µM (inactive)

What reported GI50 corresponds to N#CC1=C(N)C(C#N)(C#N)C(c2ccc(F)cc2)C=C1C1CC1 (stereo not drawn) on SF-539?
0.597 µM (active)

Recall the recorded GI50 for Cc1nc2sc(CCl)nn2c(=O)c1Cl with SF-539 and state it.
16.7 µM (inactive)

Give SF-539 GI50 for O=C(O)C(Sc1ccc(Cl)cc1)Sc1ccc(Cl)cc1
39.3 µM (inactive)

Please tell me: GI50 of CCOC(=O)CNC(=O)c1nc[nH]c1/N=N/N(C)C , system SF-539?
> 100 µM (inactive)

Entry O=C(NCCCCCCNC(=O)n1cc(F)c(=O)[nH]c1=O)NCCCOCCOCCCNC(=O)C(O)C(O)C(O)C(O)CO (stereo not drawn) , system SF-539: what GI50 was measured?
> 1.84 µM (inactive)

# query: GI50 | item CC(C)(Br)C(Br)CCC(C)(Br)C(Br)CO (stereo not drawn) | system: SF-539
> 10 µM (inactive)

Notebook entry, SF-539 assay: GI50 of Cc1oc2c(cc(O)c3cc(O)ccc32)c2cccc1-2 = ?
> 100 µM (inactive)

Request - read-out GI50 | tested on SF-539 | compound COc1cc2cc3c4cc(OC)c(OC)cc4cc[n+]3c(C)c2cc1OC
41.7 µM (inactive)

API: value(readout= GI50, system= SF-539, query= CCOP(=O)(OCC)/C(C#N)=C/c1ccc[nH]1 )
> 100 µM (inactive)

Provide value of GI50 for this record tested with SF-539: Clc1ccc(-c2cn3c(nc4ccccc43)c(/C=C/c3cccs3)n2)cc1
> 100 µM (inactive)

Enter reported GI50 observed with SF-539 for NC(C(F)(F)F)(C(F)(F)F)P(=O)(c1ccccc1)c1ccccc1
> 100 µM (inactive)

Notebook entry, SF-539 assay: GI50 of O=C1N[C@@H]2c3c(Br)sc(Br)c3C(=O)[C@@H]2O1 = ?
10.3 µM (inactive)

Param readout= GI50; system= SF-539; entry= CCOc1cc(NC(C)=O)ccc1C(=O)NNC(=O)c1ccccc1OC(C)=O ; returns value.
12.5 µM (inactive)

Value wanted: GI50 (SF-539) of entry COc1ccc(/C=c2\s/c(=C3/SC(=S)N(c4ccccc4)C3=O)n(-c3ccccc3)c2=O)cc1
32.8 µM (inactive)

Provide value of GI50 for this record tested with SF-539: O=C1CC(Nc2ccccc2)c2c(Cl)sc(Cl)c21 (stereo not drawn)
0.527 µM (active)

API: value(readout=GI50, system=SF-539) for record CN1CCCN2CCN(C)CCN(CC1)CC2
0.0366 µM (active)

Find GI50 (SF-539) for the entry OC1NC2Nc3ccccc3NC2NC1O (stereo not drawn)
> 100 µM (inactive)

Quick check: GI50 on SF-539, item Cc1cc(N=C2C=C(Br)C(=O)C(Br)=C2)cc(CN(CC(=O)O)CC(=O)O)c1O ?
> 100 µM (inactive)

Observed GI50 on SF-539 for Cc1cn(C2CC(N=[N+]=[N-])C(CO[Si](C)(C)C(C)(C)C)O2)c(=O)[nH]c1=O (stereo not drawn) , please.
18 µM (inactive)

Query the reported GI50 for SF-539; item: CC(NC(=O)C(NC(=O)OCc1ccccc1)C(C)C)C(=O)NCC(=O)O (stereo not drawn) (Cbz-Val-Ala-Gly-OH; configuration not given here)
> 100 µM (inactive)

Identify the measured GI50 of O=C1CCSc2c(cnc3ccccc23)N1 for SF-539.
59.3 µM (inactive)

# value lookup — system SF-539, readout GI50, item O=C1c2cccc3cc([N+](=O)[O-])cc(c23)C(=O)N1Nc1ccc([N+](=O)[O-])cc1[N+](=O)[O-]
10.6 µM (inactive)

Give SF-539 GI50 for O=P(O)(O)CCP(=O)(O)O
> 100 µM (inactive)

Given the entry Cn1c(=O)[nH]c2c(c1=O)C(=O)CN2 , what GI50 was observed with SF-539?
> 100 µM (inactive)

Param readout= GI50; system= SF-539; entry= CCN(CC)CCNc1c(OC)cc(C)c2sc3ccccc3c(=O)c12 ; returns value.
10.6 µM (inactive)

Hi! What's the reported GI50 for O=C(O)c1ccccc1NS(=O)(=O)c1ccc(Cl)cc1 on SF-539?
> 100 µM (inactive)

Please provide the recorded GI50 for COc1ccc(OC)c(C(=O)/C=C/c2cc(O)c(O)cc2F)c1 , tested on SF-539.
0.258 µM (active)

Query the reported GI50 for SF-539; item: CC(=O)O[C@H]1CCC2[C@@H]3CCC4=C(O)c5nocc5C[C@]4(C)C3CC[C@@]21C (stereo partly drawn)
> 100 µM (inactive)

Record lookup: for SF-539, what GI50 belongs to Cc1nnc2sc(Cl)nn12 ?
20.9 µM (inactive)

Please state recorded GI50 (tested on SF-539) of Clc1ccc(-c2nc3cc(Cl)ccc3[nH]2)cc1
22.6 µM (inactive)

Kindly state the measured GI50 obtained for CNC(=O)NC(CCCCNC(=O)OCc1ccccc1)C(=O)OCc1ccccc1 (stereo not drawn) with SF-539.
30.3 µM (inactive)

Test system SF-539; read-out GI50; what value for CCC(C)[C@H](NC(=O)[C@H](Cc1ccccc1)NC(=O)N(CC)c1ccccc1)C(=O)N[C@@H](CC(C)C)C(=O)OC (stereo partly drawn) ?
24.2 µM (inactive)

Test system SF-539; read-out GI50; what value for O=C(O)C1C2C=CC(C2)C1c1ccccc1 (stereo not drawn) ?
> 100 µM (inactive)

Short answer please: GI50, SF-539, entry COc1cc2c(cc1OC)C1[C@@H](c3ccccc3)OCN1CC2 (stereo partly drawn)
> 100 µM (inactive)

Recall the recorded GI50 for Sc1nnc(-c2ccccc2)n1/N=C\c1ccc(-c2ccc(Cl)cc2)o1 with SF-539 and state it.
> 100 µM (inactive)

Provide value of GI50 for this record tested with SF-539: N=C(N)NS(=O)(=O)c1ccc(Nc2c3ccccc3nc3c(C(=O)N4CCN(CCO)CC4)ccc(Cl)c23)cc1
> 100 µM (inactive)

API: value(readout=GI50, system=SF-539) for record C=C1c2nc3ccccc3n2C=C(c2ccccc2)N1c1ccc(OC)cc1
14 µM (inactive)

Recall the recorded GI50 for O=C1C(Cl)=C(N2CCN(c3ccccn3)CC2)C(=O)c2c(O)ccc(O)c21 with SF-539 and state it.
1.79 µM (inactive)

Record CN(C)c1ccc(C2ON=C(c3ccccc3)N2C23CC4CC(CC(C4)C2)C3)cc1 (stereo not drawn) : what is its GI50 with SF-539?
> 10 µM (inactive)

Any idea what GI50 came out for O=C1CCCC/C1=C\c1ccc(Br)cc1 on SF-539?
19.9 µM (inactive)

Notebook: pull reported GI50 for SF-539, entry COc1ccc(CC2c3c(cc(OC)c(OC)c3OC)CCN2C)cc1OC (stereo not drawn)
> 100 µM (inactive)

Find the measured GI50: item COC1C(O)C(C)OC(O[C@H]2CC[C@@]3(C)C(CC[C@@H]4[C@@H]3CC[C@]3(C)[C@@H](C(C)OC5OC(CO)C(O)C(O)C5O)CC[C@]43O)C2)C1O (stereo partly drawn) , target or system SF-539.
> 25 µM (inactive)
